Molecular target: PbrERF114 (pear, cultivar Cuiguan?, UniProt A0A5H2MWQ4 1-250)
Sequence (A0A5H2MWQ4 entry or part of it): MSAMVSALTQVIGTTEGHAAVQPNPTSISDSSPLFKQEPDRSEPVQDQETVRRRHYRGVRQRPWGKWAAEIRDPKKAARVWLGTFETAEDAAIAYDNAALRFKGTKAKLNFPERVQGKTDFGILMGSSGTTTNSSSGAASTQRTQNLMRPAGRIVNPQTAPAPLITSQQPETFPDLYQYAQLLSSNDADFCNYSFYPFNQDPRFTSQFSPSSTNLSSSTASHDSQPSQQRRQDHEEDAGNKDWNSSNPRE
Test: BLI; saturated at 8382 nM; sentence names PbrERF24-His, but context and legend are PbrERF114; BLI: 137 mM NaCl, 4.3 mM Na2HPO4, 2.7 mM KCl, 1.4 mM KH2PO4, 0.02% Tween-20, pH 7.2 (PBS), streptavidin sensors, temperature not given; EMSA: LightShift Chemiluminescent EMSA kit, buffer not given
Conditions: protein: recombinant; tags: His; pCold-TF vector (trigger factor fusion implied); label: biotin
pKd: −log10 of the molar value.
readout.kind: pKd

Output pKd of PbrERF24 promoter probe (dsDNA) DNA 1: CCAGTTTACAATGGTGGCCAAGATTGTAAT DNA 2: ATTACAATCTTGGCCACCATTGTAAACTGG > 6.00

These data points were gathered from paper PMC11566906.
